# assay.text: Antiproliferative activity against human MIAPaCa2 cells assessed as growth inhibition after 48 hrs by SRB assay
# Format: functional
# condition.parameters: MIA PaCa-2, 48 h
Entries are grouped by GI50 into these classes: bottom bin (below 1000 nM), middle bin (1000 nM to below 3000 nM), top bin (3000 nM or more)

Some entries whose results are on file:
molecule	label
COC(=O)[C@H]1C(c2nc3cc(C(F)(F)F)cc(Br)c3[nH]2)=Cc2cc3c(cc2[C@H]1c1cc(OC)c(OC)c(OC)c1)OCO3	top bin
COC(=O)[C@H]1C(c2nc3ccc(OC)cc3[nH]2)=Cc2cc3c(cc2[C@H]1c1cc(OC)c(OC)c(OC)c1)OCO3	middle bin
COC(=O)[C@H]1C(c2nc3ccc(C)cc3[nH]2)=Cc2cc3c(cc2[C@H]1c1cc(OC)c(OC)c(OC)c1)OCO3	top bin
COC(=O)[C@H]1C(c2nc3ccc(Cl)cc3[nH]2)=Cc2cc3c(cc2[C@H]1c1cc(OC)c(OC)c(OC)c1)OCO3	middle bin
COC(=O)[C@H]1C(c2nc3ccc(Br)cc3[nH]2)=Cc2cc3c(cc2[C@H]1c1cc(OC)c(OC)c(OC)c1)OCO3	bottom bin

Exam item: State the class of the molecule shown: COC(=O)Nc1nc2cc(C(=O)c3cccs3)ccc2[nH]1 [NOCODAZOLE]
Marked response: bottom bin

Exam item: State the class of the molecule shown: COC(=O)[C@H]1C(c2nc3cc(C)c(C)cc3[nH]2)=Cc2cc3c(cc2[C@H]1c1cc(OC)c(OC)c(OC)c1)OCO3
Marked response: middle bin

Exam item: State the class of the molecule shown: COc1cc([C@@H]2c3cc4c(cc3[C@H](O)[C@H]3COC(=O)[C@H]23)OCO4)cc(OC)c1OC [PODOFILOX]
Marked response: bottom bin

Exam item: State the class of the molecule shown: COC(=O)[C@H]1C(C=O)=Cc2cc3c(cc2[C@H]1c1cc(OC)c(OC)c(OC)c1)OCO3
Marked response: bottom bin

Exam item: State the class of the molecule shown: COC(=O)[C@H]1C(c2nc3cc(Cl)c(Cl)cc3[nH]2)=Cc2cc3c(cc2[C@H]1c1cc(OC)c(OC)c(OC)c1)OCO3
Marked response: top bin

Exam item: State the class of the molecule shown: COc1cc([C@@H]2c3cc4c(cc3[C@@H](O[C@@H]3O[C@@H]5CO[C@@H](C)O[C@H]5[C@H](O)[C@H]3O)[C@H]3COC(=O)[C@H]23)OCO4)cc(OC)c1O [ETOPOSIDE]
Marked response: middle bin

Exam item: State the class of the molecule shown: COC(=O)[C@H]1C(c2nc3cc4ccccc4cc3[nH]2)=Cc2cc3c(cc2[C@H]1c1cc(OC)c(OC)c(OC)c1)OCO3
Marked response: middle bin

Exam item: State the class of the molecule shown: COC(=O)[C@H]1C(c2nc3ccccc3[nH]2)=Cc2cc3c(cc2[C@H]1c1cc(OC)c(OC)c(OC)c1)OCO3
Marked response: middle bin

Exam item: State the class of the molecule shown: COC(=O)[C@H]1C(c2nc3ccc(F)cc3[nH]2)=Cc2cc3c(cc2[C@H]1c1cc(OC)c(OC)c(OC)c1)OCO3
Marked response: top bin
